# MEASUREMENT NOTES: qHTS Assay for Rab9 Promoter Activators; further: nearly all actives have a fitted effect of over 60% in size
# PARTICULARS: Huh7 Rab9 promoter-luciferase reporter, luminescence, 24 h; series mostly up to 9.22 µM
In all, about 320,000 compounds went through this assay and about 9,100 (2.8%) were called active. Inconclusive results (about 3%) are left out. The call rests on the fitted dose curve; in most records, active means well fitted activation curve with a large enough effect; inconclusive means small, poorly fitted or top-dose-only effect; inactive means no such curve, though single readings can be large or run the other way. This is one part of a sample in which actives are shown more often than they occur.
Outcome codes: label 1 (active), label 0 (inactive)

>  <COMPOUND>
COc1ccc(C)cc1NC(=O)CCCN1C(=O)NC(C)(C)C1=O

>  <ANSWER LABEL>
label 0

$$$$
>  <COMPOUND>
Nc1nc(COC(=O)CCC(=O)c2ccc(Cl)cc2)nc(Nc2ccccc2)n1

>  <ANSWER LABEL>
label 0

$$$$
>  <COMPOUND>
C/C(=N\NC(=S)Nc1ccc(C)cc1)c1cc2ccccc2o1

>  <ANSWER LABEL>
label 0

$$$$
>  <COMPOUND>
COc1ccc(F)cc1C(=O)COC(=O)c1n[nH]c(=O)c2ccccc12

>  <ANSWER LABEL>
label 0

$$$$
>  <COMPOUND>
O=C(Nc1ccc(Cl)cc1)Nc1nnc(/C=C/c2ccccc2)s1

>  <ANSWER LABEL>
label 0

$$$$
>  <COMPOUND>
CCOC(=O)c1c(NC(=O)CN2C(=O)NC3(CCC(C)CC3)C2=O)sc(C)c1CC (stereo unspecified)

>  <ANSWER LABEL>
label 0

$$$$
>  <COMPOUND>
O=C(c1ccc(Cl)cc1)c1cnc(Nc2ccccc2)s1

>  <ANSWER LABEL>
label 1

$$$$
>  <COMPOUND>
O=C(COC(=O)c1ccc2ncsc2c1)Nc1ccc(Cl)cc1

>  <ANSWER LABEL>
label 0

$$$$
>  <COMPOUND>
Cc1ccc(C(=O)c2c(NC(=O)c3ccccc3)sc(C)c2C)cc1

>  <ANSWER LABEL>
label 0

$$$$
>  <COMPOUND>
Cc1sc(NC(=O)c2ccc3ncsc3c2)c(C(N)=O)c1C

>  <ANSWER LABEL>
label 1

$$$$
>  <COMPOUND>
O=C(COc1ccccc1O)NC1CCCC1

>  <ANSWER LABEL>
label 0

$$$$
